Property: viability, T/C; scope: individual molecules
Test system: 186277-243-T-J2-PDC complex spheroid growth
MEASUREMENT NOTES: Anticancer human tumor 186277-243-T-J2-PDC patient-derived colon adenocarcinoma cell line growth inhibition [AhR]
CONDITIONS: second compound 10 µM; first compound 3.16 µM; hits give low values
The reply should be a number in %, with the unit left off.

>>> value_measured("COc1ccc([C@@H](O)c2cc(-c3ncnc4cc(N5CCOCC5)ccc34)c(F)cc2Cl)nn1 + Cc1cncc(-c2nc(NCCc3c[nH]c4ccccc34)c3ncn(C(C)C)c3n2)c1")
16.6
>>> value_measured("CC(C)c1c(-c2ccccc2)nc2c(C#N)c[nH]n2c1=O + Cc1cncc(-c2nc(NCCc3c[nH]c4ccccc34)c3ncn(C(C)C)c3n2)c1")
23.9
>>> value_measured("COc1cc(Nc2ncc3c(n2)-c2ccc(Cl)cc2C(c2c(F)cccc2OC)=NC3)ccc1C(=O)O + Cc1ccccc1N=Nc1ccc(NC(=O)c2ccnn2C)c(C)c1")
93.3
>>> value_measured("NS(=O)(=O)OCC1CC(n2ccc3c(NC4CCc5ccccc54)ncnc32)CC1O (stereo not drawn) + Cc1cncc(-c2nc(NCCc3c[nH]c4ccccc34)c3ncn(C(C)C)c3n2)c1")
2.02
>>> value_measured("O=C(c1cc(Cc2n[nH]c(=O)c3ccccc23)ccc1F)N1CCN(C(=O)C2CC2)CC1 + Cc1ccccc1N=Nc1ccc(NC(=O)c2ccnn2C)c(C)c1")
93.6
>>> value_measured("CC1(C)CCC(CN2CCN(c3ccc(C(=O)NS(=O)(=O)c4ccc(NCC5CCOCC5)c([N+](=O)[O-])c4)c(Oc4cnc5[nH]ccc5c4)c3)CC2)=C(c2ccc(Cl)cc2)C1 + CC(CO)NC(=O)c1cc(-c2ccc(Cl)cc2)nn(-c2cnn(C)c2)c1=O")
74.4
>>> value_measured("COc1cccc2c1C(=O)c1c(O)c3c(c(O)c1C2=O)CC(O)(C(=O)CO)CC3OC1CC(N)C(O)C(C)O1 (stereo not drawn) + Cc1cncc(-c2nc(NCCc3c[nH]c4ccccc34)c3ncn(C(C)C)c3n2)c1")
0.49
>>> value_measured("O=C(c1cc(Cc2n[nH]c(=O)c3ccccc23)ccc1F)N1CCN(C(=O)C2CC2)CC1 + CC(CO)NC(=O)c1cc(-c2ccc(Cl)cc2)nn(-c2cnn(C)c2)c1=O")
58.4
>>> value_measured("COc1cccc2c1C(=O)c1c(O)c3c(c(O)c1C2=O)CC(O)(C(=O)CO)CC3OC1CC(N)C(O)C(C)O1 (stereo not drawn) + Cc1ccccc1N=Nc1ccc(NC(=O)c2ccnn2C)c(C)c1")
0.25
>>> value_measured("O=C(c1cc(Cc2n[nH]c(=O)c3ccccc23)ccc1F)N1CCN(C(=O)C2CC2)CC1 + Cc1cncc(-c2nc(NCCc3c[nH]c4ccccc34)c3ncn(C(C)C)c3n2)c1")
28.5

What the record says about COc1cc(C2c3cc4c(cc3C(OC3OC5COC(C)OC5C(O)C3O)C3COC(=O)C23)OCO4)cc(OC)c1O (stereo not drawn) + CC(CO)NC(=O)c1cc(-c2ccc(Cl)cc2)nn(-c2cnn(C)c2)c1=O : viability, T/C is 10.4

What the record says about Nc1ccccc1NC(=O)c1ccc(CNC(=O)OCc2cccnc2)cc1 + Cc1ccccc1N=Nc1ccc(NC(=O)c2ccnn2C)c(C)c1 : viability, T/C is 61.2

What the record says about COc1cc(Nc2ncc3c(n2)-c2ccc(Cl)cc2C(c2c(F)cccc2OC)=NC3)ccc1C(=O)O + Cc1cncc(-c2nc(NCCc3c[nH]c4ccccc34)c3ncn(C(C)C)c3n2)c1 : viability, T/C is 23.8

What the record says about CC1(C)CCC(CN2CCN(c3ccc(C(=O)NS(=O)(=O)c4ccc(NCC5CCOCC5)c([N+](=O)[O-])c4)c(Oc4cnc5[nH]ccc5c4)c3)CC2)=C(c2ccc(Cl)cc2)C1 + Cc1ccccc1N=Nc1ccc(NC(=O)c2ccnn2C)c(C)c1 : viability, T/C is 85.7

What the record says about COc1cc(Nc2ncc3c(n2)-c2ccc(Cl)cc2C(c2c(F)cccc2OC)=NC3)ccc1C(=O)O + CC(CO)NC(=O)c1cc(-c2ccc(Cl)cc2)nn(-c2cnn(C)c2)c1=O : viability, T/C is 23.4

* * *

Test system: 186277-243-T-J2-PDC complex spheroid growth
MEASUREMENT NOTES: Anticancer human tumor 186277-243-T-J2-PDC cell line growth inhibition [AhR]; active = viability on the fitted dose curve at most 10% of control; inactive = the rest;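 note: luminescent signal used as a stand-in for viable cell amount; spheroids exposed to compounds for seven days before the viability read; 100% = DMSO vehicle control wells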
CONDITIONS: second compound 0.316 µM; first compound 0.316 µM
Classes to choose from: active, inactive

>>> cat("CC1COCCN1c1cc(-c2ccnn2C)c2ccnc(-c3ccn[nH]3)c2n1 (stereo unspecified) + CC(CO)NC(=O)c1cc(-c2ccc(Cl)cc2)nn(-c2cnn(C)c2)c1=O")
"active"
>>> cat("COc1cccc2c1C(=O)c1c(O)c3c(c(O)c1C2=O)CC(O)(C(=O)CO)CC3OC1CC(N)C(O)C(C)O1 (stereo unspecified) + CC(CO)NC(=O)c1cc(-c2ccc(Cl)cc2)nn(-c2cnn(C)c2)c1=O")
"active"
>>> cat("COc1cccc2c1C(=O)c1c(O)c3c(c(O)c1C2=O)CC(O)(C(=O)CO)CC3OC1CC(N)C(O)C(C)O1 (stereo unspecified) + Cc1cncc(-c2nc(NCCc3c[nH]c4ccccc34)c3ncn(C(C)C)c3n2)c1")
"inactive"
>>> cat("CC(C)c1c(-c2ccccc2)nc2c(C#N)c[nH]n2c1=O + Cc1ccccc1N=Nc1ccc(NC(=O)c2ccnn2C)c(C)c1")
"inactive"
>>> cat("Nc1ccccc1NC(=O)c1ccc(CNC(=O)OCc2cccnc2)cc1 + CC(CO)NC(=O)c1cc(-c2ccc(Cl)cc2)nn(-c2cnn(C)c2)c1=O")
"inactive"

Shifting focus to the molecule that follows.
What was the test verdict on CC(C)c1c(-c2ccccc2)nc2c(C#N)c[nH]n2c1=O + CC(CO)NC(=O)c1cc(-c2ccc(Cl)cc2)nn(-c2cnn(C)c2)c1=O ?
inactive

* * *

Tested on: 186277-243-T-J2-PDC complex spheroid growth
MEASUREMENT NOTES: Anticancer human tumor 186277-243-T-J2-PDC cell line growth inhibition [AhR];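 note: luminescent signal used as a stand-in for viable cell amount; spheroids exposed to compounds for seven days before the viability read; 100% = DMSO vehicle control wells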
CONDITIONS: second compound 0.316 µM; first compound 0.316 µM; hits give low values
QUANTITY KIND: viability, T/C (%)
The reply should be a number in %, with the unit left off.

>>> value_measured("CC1COCCN1c1cc(C2(S(C)(=N)=O)CC2)nc(-c2ccnc3[nH]ccc23)n1 (stereo unspecified) + Cc1cncc(-c2nc(NCCc3c[nH]c4ccccc34)c3ncn(C(C)C)c3n2)c1")
87.3
>>> value_measured("O=C(C=Cc1cccc(S(=O)(=O)Nc2ccccc2)c1)NO + Cc1ccccc1N=Nc1ccc(NC(=O)c2ccnn2C)c(C)c1")
101
>>> value_measured("O=C(C=Cc1cccc(S(=O)(=O)Nc2ccccc2)c1)NO + Cc1cncc(-c2nc(NCCc3c[nH]c4ccccc34)c3ncn(C(C)C)c3n2)c1")
94.8
>>> value_measured("NS(=O)(=O)OCC1CC(n2ccc3c(NC4CCc5ccccc54)ncnc32)CC1O (stereo unspecified) + Cc1cncc(-c2nc(NCCc3c[nH]c4ccccc34)c3ncn(C(C)C)c3n2)c1")
71.4
>>> value_measured("COc1cc(Nc2ncc3c(n2)-c2ccc(Cl)cc2C(c2c(F)cccc2OC)=NC3)ccc1C(=O)O + Cc1ccccc1N=Nc1ccc(NC(=O)c2ccnn2C)c(C)c1")
114

API: the following record is the query input.
What the record says about COc1ccc([C@@H](O)c2cc(-c3ncnc4cc(N5CCOCC5)ccc34)c(F)cc2Cl)nn1 + Cc1cncc(-c2nc(NCCc3c[nH]c4ccccc34)c3ncn(C(C)C)c3n2)c1 : viability, T/C is 98.3

* * *

Tested on: 186277-243-T-J2-PDC complex spheroid growth
MEASUREMENT NOTES: Anticancer human tumor 186277-243-T-J2-PDC cell line growth inhibition [AhR]; active = viability on the fitted dose curve at most 10% of control; inactive = the rest;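 note: luminescent signal used as a stand-in for viable cell amount; spheroids exposed to compounds for seven days before the viability read; 100% = DMSO vehicle control wells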
CONDITIONS: second compound 3.16 µM; first compound 0.0316 µM
Source text: Multicellular complex tumor spheroid response to aryl hydrocarbon receptor antagonists in combination with a variety of drugs and investigational agents in selected tumor cell lines […] Compounds. […] If the clinical Cmax for an agent had not been determined, the highest concentration tested was 10 microM (Table 1). […]
Classes to choose from: Y for active, N for inactive

>>> cat("Nc1ccn(C2OC(CO)C(O)C2(F)F)c(=O)n1 (centres undefined) + Cc1cncc(-c2nc(NCCc3c[nH]c4ccccc34)c3ncn(C(C)C)c3n2)c1")
"Y"
>>> cat("NS(=O)(=O)OCC1CC(n2ccc3c(NC4CCc5ccccc54)ncnc32)CC1O (centres undefined) + Cc1ccccc1N=Nc1ccc(NC(=O)c2ccnn2C)c(C)c1")
"N"

What was the test verdict on Cn1ncnc1C1c2n[nH]c(=O)c3cc(F)cc(c23)NC1c1ccc(F)cc1 (centres undefined) + Cc1cncc(-c2nc(NCCc3c[nH]c4ccccc34)c3ncn(C(C)C)c3n2)c1 ?
N

What was the test verdict on O=C(C=Cc1cccc(S(=O)(=O)Nc2ccccc2)c1)NO + Cc1cncc(-c2nc(NCCc3c[nH]c4ccccc34)c3ncn(C(C)C)c3n2)c1 ?
N

What was the test verdict on COc1ccc([C@@H](O)c2cc(-c3ncnc4cc(N5CCOCC5)ccc34)c(F)cc2Cl)nn1 + Cc1ccccc1N=Nc1ccc(NC(=O)c2ccnn2C)c(C)c1 ?
N

What was the test verdict on Nc1ccn(C2OC(CO)C(O)C2(F)F)c(=O)n1 (centres undefined) + CC(CO)NC(=O)c1cc(-c2ccc(Cl)cc2)nn(-c2cnn(C)c2)c1=O ?
Y

What was the test verdict on COc1cc(Nc2ncc3c(n2)-c2ccc(Cl)cc2C(c2c(F)cccc2OC)=NC3)ccc1C(=O)O + Cc1cncc(-c2nc(NCCc3c[nH]c4ccccc34)c3ncn(C(C)C)c3n2)c1 ?
N
